- System: HOP-62 complex spheroids with HUVEC/MSC, viability
- methodSummary: Anticancer human tumor HOP-62 cell line growth inhibition [RAS];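 further: spheroids exposed to agents for seven days before readout; 100% = DMSO vehicle control viability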
- recordedConditions: second compound 1 µM; first compound 1 µM; hits give low values

molecule	viability, T/C (%)
CCN1CCN(Cc2ccc(Nc3ncc(F)c(-c4cc(F)c5nc(C)n(C(C)C)c5c4)n3)nc2)CC1 + C=CC(=O)N1CCN(c2nc(OCC3CCCN3C)nc3c(F)c(-c4nc(N)cc(C)c4C(F)(F)F)c(Cl)cc23)C(C)C1	47.1
C=CC(=O)N1CCN(c2nc(OCC3CCCN3C)nc3c(F)c(-c4nc(N)cc(C)c4C(F)(F)F)c(Cl)cc23)C(C)C1 (stereo not drawn) + C#Cc1c(F)ccc2cc(O)cc(-c3ncc4c(N5CC6CCC(C5)N6)nc(OCC56CCCN5CC(F)C6)nc4c3F)c12	58.4
Cc1nc(N2CCC3(CC2)COC(C)C3N)c(CO)nc1Sc1ccnc(N)c1Cl (stereo not drawn) + C#Cc1c(F)ccc2cc(O)cc(-c3ncc4c(N5CC6CCC(C5)N6)nc(OCC56CCCN5CC(F)C6)nc4c3F)c12	46.6

Data origin: PubChem BioAssay AID2060892
